- MEASURED_TARGET: T1, human PD-1 ECD/Fc fusion protein (human)
- T1 construct: also called huPD-1/Fc; HuPD-1 ECD/Fc
- T1 sequence (chain, as listed by the source limits assumed): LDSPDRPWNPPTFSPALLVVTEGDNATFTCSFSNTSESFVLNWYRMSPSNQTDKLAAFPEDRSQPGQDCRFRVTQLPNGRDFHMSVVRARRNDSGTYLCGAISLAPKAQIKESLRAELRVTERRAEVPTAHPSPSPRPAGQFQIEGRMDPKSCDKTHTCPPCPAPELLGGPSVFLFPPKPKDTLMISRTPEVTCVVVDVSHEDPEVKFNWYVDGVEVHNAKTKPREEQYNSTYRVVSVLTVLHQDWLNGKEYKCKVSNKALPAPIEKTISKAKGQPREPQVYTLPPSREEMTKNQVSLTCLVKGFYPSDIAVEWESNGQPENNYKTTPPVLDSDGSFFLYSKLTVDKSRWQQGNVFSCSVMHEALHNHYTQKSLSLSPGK
- METHOD: SPR Biacore, mAb captured, huPD-1/Fc analyte
Measured koff, listed per entry for reference.
Give the value in s⁻¹ but do not write s⁻¹ after it.

BINDER | koff, s⁻¹
mAb703 (antibody, V domains shown, murine hybridoma anti-PD-1 mAb) VH: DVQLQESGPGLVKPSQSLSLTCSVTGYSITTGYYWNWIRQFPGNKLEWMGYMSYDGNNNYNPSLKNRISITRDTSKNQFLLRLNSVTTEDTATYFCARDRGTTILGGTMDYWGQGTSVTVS VL: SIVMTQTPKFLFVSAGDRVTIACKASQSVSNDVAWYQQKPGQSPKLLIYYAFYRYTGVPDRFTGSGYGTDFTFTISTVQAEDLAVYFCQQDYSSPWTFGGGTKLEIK | 0.00085

As a next step, examine the binder that follows.
Recorded koff of mAb713 (antibody, V domains shown, murine hybridoma anti-PD-1 mAb) VH: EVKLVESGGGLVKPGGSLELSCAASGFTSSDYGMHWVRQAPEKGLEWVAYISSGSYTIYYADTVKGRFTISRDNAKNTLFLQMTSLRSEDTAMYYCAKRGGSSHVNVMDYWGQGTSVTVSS VL: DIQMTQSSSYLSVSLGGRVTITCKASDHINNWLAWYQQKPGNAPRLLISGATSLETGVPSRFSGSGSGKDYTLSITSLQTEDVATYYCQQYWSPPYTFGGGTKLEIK , please.
0.000285

The measured values listed here are drawn from patent US20210188980A1.
